system: Brain; experiment: Ratio of drug level in ddY mouse brain at 13.2 to 20.6 kBq, iv measured at 2 mins to drug level in ddY mouse brain at 13.2 to 20.6 kBq, iv measured at 60 mins; assay type: ADME, organism-based; conditions: in vivo
Catalogue of Ratio readings, one per entry.

[
  {
    "mol-smiles": "CNc1ccc(/N=N/c2nc3ccc([125I])cc3s2)cc1",
    "Ratio": 0.33
  },
  {
    "mol-smiles": "Nc1ccc(/N=N/c2nc3ccc([125I])cc3s2)cc1",
    "Ratio": 0.3
  },
  {
    "mol-smiles": "Nc1ccc(/C=C/c2nc3ccc([125I])cc3[nH]2)cc1",
    "Ratio": 26.7
  },
  {
    "mol-smiles": "CN(C)c1ccc(/C=C/c2nc3ccc([125I])cc3[nH]2)cc1",
    "Ratio": 9.94
  },
  {
    "mol-smiles": "CNc1ccc(/C=C/c2nc3ccc([125I])cc3[nH]2)cc1",
    "Ratio": 29.4
  },
  {
    "mol-smiles": "CN(C)c1ccc(/N=N/c2nc3ccc([125I])cc3s2)cc1",
    "Ratio": 0.33
  }
]
